TEST SYSTEM: Human plasma kallikrein (human, UniProt P03952)
EXPERIMENT SUMMARY: enzyme inhibition of plasma kallikrein (apparent Ki*)
QUANTITY NAME: Ki

KALI-D (designed binder) VREVCSEQAEDGHCRAAHPRWYFDVTEGKCAPFFYGGCGGNRNNFDTEEYCAAVCGSA	< 0.05 nM
KALI-DV (designed binder) VREVCSEQAEDGHCRAAHPRWYFDVTEGKCAPFVYGGCGGNRNNFDTEEYCAAVCGSA	< 0.05 nM
KALI-DY (designed binder) VREVCSEQAEDGHCRAAHPRWYFDVTEGKCAPFYYGGCGGNRNNFDTEEYCAAVCGSA	< 0.05 nM
